target: Dihydrofolate reductase (Homo sapiens); test: Inhibition of human DHFR assessed as reduction in consumption of NADPH using DHF as substrate incubated for 3 mins measured for 2 mins by spectrophotometric method
# IC50 per record follows
Provide only the numeric value, understood in µM.

*Q* Entry "Nc1nc(N)nc(-c2ccc(OCc3ccc(Cl)cc3)cc2)n1" : reported IC50 = ?
*A* 83.3

Others:
*Q* Entry "Nc1nc(N)nc(-c2ccc(OCc3cccc(Cl)c3)cc2)n1" : reported IC50 = ?
*A* 72.5

###

experiment: Aqueous solubility of compound in pH 7.4 solution after 90 mins by UV method; format: physicochemical; conditions: aqueous solution pH 7.4, pH 7.4
endpoint name: solubility at 1.5 h (µM)
Provide only the numeric value, understood in µM.

*Q* Entry "Cl.NC1=NC2(CCCCC2)N(c2ccc(OCc3cn(CCCCOc4ccc5ccc(=O)oc5c4)nn3)cc2)C(N)=N1" : reported solubility at 1.5 h = ?
*A* 95.8

###

Biological target: Dihydrofolate reductase (Mycobacterium tuberculosis, UniProt P9WNX1)
Sequence (P9WNX1 whole entry): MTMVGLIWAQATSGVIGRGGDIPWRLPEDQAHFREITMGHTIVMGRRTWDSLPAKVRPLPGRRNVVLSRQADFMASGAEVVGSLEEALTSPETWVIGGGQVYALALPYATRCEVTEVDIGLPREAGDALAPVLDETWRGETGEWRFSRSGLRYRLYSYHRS
Assay: Inhibition of Mycobacterium tuberculosis H37Rv DHFR assessed as reduction in consumption of NADPH using DHF as substrate incubated for 3 mins measured for 2 mins by spectrophotometric method
# pIC50 per record follows
Worth noting: pIC50 values are minus log10 of concentrations stated in mol/L.

*Q* Entry "Nc1nc(N)nc(-c2ccc(OCc3ccc(Cl)cc3)cc2)n1" : reported pIC50 = ?
*A* 5.29

Now consider a different molecule.
*Q* Entry "Nc1nc(N)nc(-c2ccc(OCc3cccc(Cl)c3)cc2)n1" : reported pIC50 = ?
*A* 5.25

###

# half-life at 3 µM per record follows
assay: Half life in male rat liver microsomes at 3 uM preincubated for 5 mins followed by NADPH addition measured up to 45 mins by LC-MS/MS analysis; type: ADME, microsome
Provide only the numeric value, understood in min.

*Q* Entry "Cl.NC1=NC2(CCCCC2)N(c2ccc(OCc3cn(CCCOc4ccc5ccc(=O)oc5c4)nn3)cc2)C(N)=N1" : reported half-life at 3 µM = ?
*A* 83.2

*Q* Please give the result for "Cl.NC1=NC2(CCCCC2)N(c2ccc(OCc3cn(CCCCOc4ccc5ccc(=O)oc5c4)nn3)cc2)C(N)=N1" too.
*A* 59

###

# pIC50 per record follows
biological target: Dihydrofolate reductase (Homo sapiens, UniProt P00374); assay: Inhibition of human DHFR assessed as reduction in consumption of NADPH using DHF as substrate by fluorescence method
Sequence (P00374 whole entry): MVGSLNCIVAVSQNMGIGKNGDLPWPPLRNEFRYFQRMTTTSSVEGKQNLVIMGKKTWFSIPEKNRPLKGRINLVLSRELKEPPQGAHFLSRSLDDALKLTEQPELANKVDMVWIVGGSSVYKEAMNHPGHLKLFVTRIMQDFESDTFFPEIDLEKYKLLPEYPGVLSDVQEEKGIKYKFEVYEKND
Worth noting: pIC50 values are minus log10 of concentrations stated in mol/L.

*Q* Entry "Cc1c(Cc2ccccc2Br)cnc2nc(N)nc(N)c12" : reported pIC50 = ?
*A* 8.12

*Q* Please give the result for "COc1ccc(-c2nc3c(N)nc(N)nc3nc2C(C)C)cc1" too.
*A* 6.42

*Q* Please give the result for "N#Cc1ccc(Cn2ccc3c4c(N)nc(N)nc4ccc32)cc1" too.
*A* 8.17
